assay target: p110 alpha (Homo sapiens, UniProt P42336)
Construct: purchased Upstate Group, Millipore; Dundee, UK
Sequence (P42336 whole entry, species assumed): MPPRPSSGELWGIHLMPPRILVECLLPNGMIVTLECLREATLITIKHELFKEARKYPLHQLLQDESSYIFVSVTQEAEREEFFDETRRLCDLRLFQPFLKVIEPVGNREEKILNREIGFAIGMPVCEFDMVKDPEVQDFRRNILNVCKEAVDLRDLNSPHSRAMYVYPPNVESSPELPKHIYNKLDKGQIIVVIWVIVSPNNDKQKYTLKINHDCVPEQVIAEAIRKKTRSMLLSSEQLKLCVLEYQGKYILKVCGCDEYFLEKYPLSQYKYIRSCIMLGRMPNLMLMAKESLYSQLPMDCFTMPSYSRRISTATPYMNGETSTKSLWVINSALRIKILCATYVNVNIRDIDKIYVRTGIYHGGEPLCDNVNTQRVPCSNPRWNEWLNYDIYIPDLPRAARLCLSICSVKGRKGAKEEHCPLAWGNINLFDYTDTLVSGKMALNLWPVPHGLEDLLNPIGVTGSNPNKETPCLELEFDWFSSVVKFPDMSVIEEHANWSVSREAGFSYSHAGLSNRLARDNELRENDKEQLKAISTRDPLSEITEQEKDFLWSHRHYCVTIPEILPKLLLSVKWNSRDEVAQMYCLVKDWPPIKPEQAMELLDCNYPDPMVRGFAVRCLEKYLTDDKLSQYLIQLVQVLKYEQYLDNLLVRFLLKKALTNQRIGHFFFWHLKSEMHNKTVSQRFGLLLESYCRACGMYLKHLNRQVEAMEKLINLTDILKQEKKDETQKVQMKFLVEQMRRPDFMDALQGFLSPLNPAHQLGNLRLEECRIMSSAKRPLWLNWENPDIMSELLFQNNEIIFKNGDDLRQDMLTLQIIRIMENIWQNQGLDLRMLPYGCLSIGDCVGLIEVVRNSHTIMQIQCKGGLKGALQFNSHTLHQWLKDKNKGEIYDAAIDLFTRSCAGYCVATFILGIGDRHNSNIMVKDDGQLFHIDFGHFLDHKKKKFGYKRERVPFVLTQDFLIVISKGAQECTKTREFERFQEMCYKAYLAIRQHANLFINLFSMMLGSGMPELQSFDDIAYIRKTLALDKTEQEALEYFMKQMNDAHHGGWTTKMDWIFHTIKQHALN
Sequence (P27986 whole entry partner, species assumed): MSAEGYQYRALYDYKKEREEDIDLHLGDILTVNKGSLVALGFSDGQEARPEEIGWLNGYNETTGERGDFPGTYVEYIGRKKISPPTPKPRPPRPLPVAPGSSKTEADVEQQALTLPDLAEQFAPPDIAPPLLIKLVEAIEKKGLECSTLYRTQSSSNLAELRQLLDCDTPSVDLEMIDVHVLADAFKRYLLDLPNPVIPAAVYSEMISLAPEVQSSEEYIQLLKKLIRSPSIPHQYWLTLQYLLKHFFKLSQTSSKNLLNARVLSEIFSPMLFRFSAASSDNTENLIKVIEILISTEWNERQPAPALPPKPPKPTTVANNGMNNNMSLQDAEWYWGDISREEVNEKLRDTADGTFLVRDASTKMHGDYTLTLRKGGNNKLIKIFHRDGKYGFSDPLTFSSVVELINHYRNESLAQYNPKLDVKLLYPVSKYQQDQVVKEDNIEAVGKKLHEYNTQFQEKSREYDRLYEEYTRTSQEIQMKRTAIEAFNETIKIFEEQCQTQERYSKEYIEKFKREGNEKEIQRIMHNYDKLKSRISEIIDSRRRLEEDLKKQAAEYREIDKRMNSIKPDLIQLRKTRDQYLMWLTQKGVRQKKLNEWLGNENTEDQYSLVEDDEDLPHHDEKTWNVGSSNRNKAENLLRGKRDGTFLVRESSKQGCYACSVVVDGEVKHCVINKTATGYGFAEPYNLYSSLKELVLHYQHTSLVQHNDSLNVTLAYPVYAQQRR
protocol summary: PI3K isoform inhibition assay (fluorescence polarization), p110 alpha
Type: biochemical
condition set: delta/alpha selectivity ratio
value kind: Ki p110 alpha/ Ki p110 delta

These recorded examples may help you get a feel for the data.
CCc1nc2ccccc2n1-c1nc(N2CCOCC2)c2nc(OC3CN(C(=O)C4C[C@@H]4F)C3)n(C)c2n1 (stereo partly shown) = 104
CCc1nc2ccccc2n1-c1nc(N2CCOCC2)c2nc(OC3CN(C(=O)C4(COC)CC4)C3)n(C)c2n1 = 76
CCc1nc2ccccc2n1-c1nc(N2CCOCC2)c2nc(OC3CCN(C4CCOCC4)CC3)n(C)c2n1 = 78

(I) CC(C)c1nc2ccccc2n1-c1nc(N2CCOCC2)c2nc(OC3CN(C4CCOCC4)C3)n(C)c2n1
(II) CCc1nc2ccccc2n1-c1nc(N2CCOCC2)c2nc(OC3CN(S(=O)(=O)C4CC4)C3)n(C)c2n1
Query block: Recorded Ki p110 alpha/ Ki p110 delta values differ for I and II ; which one is higher? Your answer should be the label of the entry you select.
Result block: I

* * *

assay target: p110 delta (Homo sapiens, UniProt O00329)
Construct: Dundee, UK
Sequence (O00329 whole entry, one chain of several): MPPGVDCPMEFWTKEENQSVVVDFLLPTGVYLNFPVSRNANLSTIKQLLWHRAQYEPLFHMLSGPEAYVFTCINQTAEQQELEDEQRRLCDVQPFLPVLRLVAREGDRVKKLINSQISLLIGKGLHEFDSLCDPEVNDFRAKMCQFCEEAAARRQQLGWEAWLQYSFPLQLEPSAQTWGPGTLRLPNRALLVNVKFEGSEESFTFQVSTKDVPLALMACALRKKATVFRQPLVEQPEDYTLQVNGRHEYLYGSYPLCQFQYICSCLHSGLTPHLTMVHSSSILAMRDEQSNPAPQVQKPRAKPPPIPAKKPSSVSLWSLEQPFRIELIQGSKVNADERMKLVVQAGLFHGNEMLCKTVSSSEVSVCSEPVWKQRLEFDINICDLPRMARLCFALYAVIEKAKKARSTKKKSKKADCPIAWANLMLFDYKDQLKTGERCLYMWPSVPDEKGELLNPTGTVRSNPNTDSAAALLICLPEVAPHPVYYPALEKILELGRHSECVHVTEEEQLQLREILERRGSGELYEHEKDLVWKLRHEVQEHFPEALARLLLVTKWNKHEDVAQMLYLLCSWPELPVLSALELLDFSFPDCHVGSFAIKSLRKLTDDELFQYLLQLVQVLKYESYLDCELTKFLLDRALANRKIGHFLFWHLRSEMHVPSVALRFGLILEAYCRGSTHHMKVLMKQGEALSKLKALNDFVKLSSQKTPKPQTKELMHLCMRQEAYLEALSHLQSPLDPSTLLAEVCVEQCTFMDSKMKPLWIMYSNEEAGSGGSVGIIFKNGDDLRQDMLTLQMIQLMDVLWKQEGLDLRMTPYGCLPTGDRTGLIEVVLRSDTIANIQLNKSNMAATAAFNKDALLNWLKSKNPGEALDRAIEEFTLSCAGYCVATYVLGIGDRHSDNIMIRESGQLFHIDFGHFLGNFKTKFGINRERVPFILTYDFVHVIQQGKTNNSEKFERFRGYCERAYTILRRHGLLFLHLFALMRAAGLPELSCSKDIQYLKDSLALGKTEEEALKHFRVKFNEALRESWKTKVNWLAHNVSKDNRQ
protocol summary: PI3K isoform inhibition assay (fluorescence polarization), p110 delta
condition set: Ki apparent, Morrison equation; 25 μM ATP, 10 μM PIP2
value kind: Ki (nM)

CCc1nc2ccccc2n1-c1nc(N2CCOCC2)c2nc(OC3CN(C(=O)C(C)(C)O)C3)n(C)c2n1 [Compound 115] = 2.22

(P) CC(C)c1nc2ccccc2n1-c1nc(N2CCOCC2)c2nc(OC3CN(CC(C)(C)O)C3)n(C)c2n1 [Compound 105]
(Q) CCc1nc2ccccc2n1-c1nc(N2CCOCC2)c2nc(OC3CCN(C4COC4)CC3)n(C)c2n1 [Compound 109]
(R) CC(C)C(=O)N1CC(Oc2nc3c(N4CCOCC4)nc(-n4c(CCO)nc5ccccc54)nc3n2C)C1 [Compound 138]
Query block: Task for the reader: rank each entry by its Ki, from the minimum upward. Note for the reader: the ranking is given by listing the labels in the order requested.
Result block: Q, P, R
(Q: 1.15 nM, P: 2.03 nM, R: 3.91 nM)

* * *

assay target: p110 alpha (Homo sapiens, UniProt P42336)
Construct: purchased Upstate Group, Millipore; Dundee, UK
protocol summary: PI3K isoform inhibition assay (fluorescence polarization), p110 alpha
Format: biochemical
condition set: delta/alpha selectivity ratio
value kind: Ki p110 alpha/ Ki p110 delta

CC(C)C(=O)N1CC(Oc2nc3c(N4CCOCC4)nc(-n4c(C(C)(F)F)nc5ccccc54)nc3n2C)C1 = 31

(1) CO[C@@H](C)c1nc2ccccc2n1-c1nc(N2CCOCC2)c2nc(OC3CN(C4CCS(=O)(=O)CC4)C3)n(C)c2n1
(2) CCc1nc2ccccc2n1-c1nc(N2CCOCC2)c2nc(OC3CN(C(=O)C(C)C)C3C)n(C)c2n1 (centres unmarked)
Query block: Recorded Ki p110 alpha/ Ki p110 delta values differ for 1 and 2 ; which one is higher? Your answer should be the label of the entry you select.
Result block: 2

(A) CC(C)C(=O)N1CC(Oc2nc3c(N4CCOCC4)nc(-n4c(CCO)nc5ccccc54)nc3n2C)C1
(B) CC(C)C(=O)N1CC(Oc2nc3c(N4CCOCC4)nc(-n4c(C(C)C)nc5ccccc54)nc3n2C)C1
Query block: Recorded Ki p110 alpha/ Ki p110 delta values differ for A and B ; which one is higher? Your answer should be the label of the entry you select.
Result block: B

(I) CCc1nc2ccccc2n1-c1nc(N2CCOCC2)c2nc(OC3CN(C4CC[S+]([O-])CC4)C3)n(C)c2n1 (single isomer, unassigned)
(II) CCc1nc2ccccc2n1-c1nc(N2CCOCC2)c2nc(OC3CN(C(=O)C4(C(F)(F)F)CC4)C3)n(C)c2n1
Query block: Recorded Ki p110 alpha/ Ki p110 delta values differ for I and II ; which one is higher? Your answer should be the label of the entry you select.
Result block: I

(I) CCc1nc2ccccc2n1-c1nc(N2CCOCC2)c2nc(OC3CN(C(=O)C(C)(C)N)C3)n(C)c2n1
(II) CCc1nc2ccccc2n1-c1nc(N2CCOCC2)c2nc(OC3CN(C(=O)C4(C)CC4)C3)n(C)c2n1
Query block: Lab note: check whether I or II has the lower measured Ki p110 alpha/ Ki p110 delta. Your answer should be the label of the entry you select.
Result block: I

(a) CO[C@H](C)c1nc2ccccc2n1-c1nc(N2CCOCC2)c2nc(OC3CN(C(=O)C(C)C)C3)n(C)c2n1
(b) CO[C@H](C)c1nc2ccccc2n1-c1nc(N2CCOCC2)c2nc(OC3CN(C4CCS(=O)(=O)CC4)C3)n(C)c2n1
Query block: Lab note: check whether a or b has the lower measured Ki p110 alpha/ Ki p110 delta. Your answer should be the label of the entry you select.
Result block: a
